We begin with a simple list: items and their reported MIC.
Tested on: Acinetobacter baumannii
Experiment: Antibacterial activity against Acinetobacter baumannii assessed as bacterial growth inhibition
Assay type: functional
MEASUREMENT NAME: MIC

COMPOUND	OBSERVED RESULT
CN[C@H](CC(C)C)C(=O)N[C@H]1C(=O)N[C@@H](CC(N)=O)C(=O)N[C@H]2C(=O)N[C@H]3C(=O)N[C@H](C(=O)N[C@H](C(=O)N/N=C/c4ccc(-c5ccccc5)cc4)c4cc(O)cc(O)c4-c4cc3ccc4O)[C@H](O)c3ccc(c(Cl)c3)Oc3cc2cc(c3O[C@@H]2O[C@H](CO)[C@@H](O)[C@H](O)[C@H]2O[C@H]2C[C@](C)(N)[C@H](O)[C@H](C)O2)Oc2ccc(cc2Cl)[C@H]1O	> 128 µg/mL
CN[C@H](CC(C)C)C(=O)N[C@H]1C(=O)N[C@@H](CC(N)=O)C(=O)N[C@H]2C(=O)N[C@H]3C(=O)N[C@H](C(=O)N[C@H](C(=O)NNCc4ccc(-c5ccccc5)cc4)c4cc(O)cc(O)c4-c4cc3ccc4O)[C@H](O)c3ccc(c(Cl)c3)Oc3cc2cc(c3O[C@@H]2O[C@H](CO)[C@@H](O)[C@H](O)[C@H]2O[C@H]2C[C@](C)(N)[C@H](O)[C@H](C)O2)Oc2ccc(cc2Cl)[C@H]1O	64 µg/mL
CN[C@H](CC(C)C)C(=O)N[C@H]1C(=O)N[C@@H](CC(N)=O)C(=O)N[C@H]2C(=O)N[C@H]3C(=O)N[C@H](C(=O)N[C@H](C(=O)N/N=C/c4ccc(-c5ccc(Cl)cc5)cc4)c4cc(O)cc(O)c4-c4cc3ccc4O)[C@H](O)c3ccc(c(Cl)c3)Oc3cc2cc(c3O[C@@H]2O[C@H](CO)[C@@H](O)[C@H](O)[C@H]2O[C@H]2C[C@](C)(N)[C@H](O)[C@H](C)O2)Oc2ccc(cc2Cl)[C@H]1O	> 128 µg/mL
CN[C@H](CC(C)C)C(=O)N[C@H]1C(=O)N[C@@H](CC(N)=O)C(=O)N[C@H]2C(=O)N[C@H]3C(=O)N[C@H](C(=O)N[C@H](C(=O)N[C@@H](CCCNC(=N)N)C(N)=O)c4cc(O)cc(O)c4-c4cc3ccc4O)[C@H](O)c3ccc(c(Cl)c3)Oc3cc2cc(c3O[C@@H]2O[C@H](CO)[C@@H](O)[C@H](O)[C@H]2O[C@H]2C[C@](C)(N)[C@H](O)[C@H](C)O2)Oc2ccc(cc2Cl)[C@H]1O	> 128 µg/mL
CN[C@H](CC(C)C)C(=O)N[C@H]1C(=O)N[C@@H](CC(N)=O)C(=O)N[C@H]2C(=O)N[C@H]3C(=O)N[C@H](C(=O)N[C@H](C(=O)N[C@@H](CS)C(=O)O)c4cc(O)cc(O)c4-c4cc3ccc4O)[C@H](O)c3ccc(c(Cl)c3)Oc3cc2cc(c3O[C@@H]2O[C@H](CO)[C@@H](O)[C@H](O)[C@H]2O[C@H]2C[C@](C)(N)[C@H](O)[C@H](C)O2)Oc2ccc(cc2Cl)[C@H]1O	> 128 µg/mL
